Please provide measured IL-2, % of BMS, at 0.411522634 ug/mL for the entries that follow.
- assay.target: T1, human LAG3 expressed on cells (human, UniProt P18627 23-525)
- T1 sequence (looked up): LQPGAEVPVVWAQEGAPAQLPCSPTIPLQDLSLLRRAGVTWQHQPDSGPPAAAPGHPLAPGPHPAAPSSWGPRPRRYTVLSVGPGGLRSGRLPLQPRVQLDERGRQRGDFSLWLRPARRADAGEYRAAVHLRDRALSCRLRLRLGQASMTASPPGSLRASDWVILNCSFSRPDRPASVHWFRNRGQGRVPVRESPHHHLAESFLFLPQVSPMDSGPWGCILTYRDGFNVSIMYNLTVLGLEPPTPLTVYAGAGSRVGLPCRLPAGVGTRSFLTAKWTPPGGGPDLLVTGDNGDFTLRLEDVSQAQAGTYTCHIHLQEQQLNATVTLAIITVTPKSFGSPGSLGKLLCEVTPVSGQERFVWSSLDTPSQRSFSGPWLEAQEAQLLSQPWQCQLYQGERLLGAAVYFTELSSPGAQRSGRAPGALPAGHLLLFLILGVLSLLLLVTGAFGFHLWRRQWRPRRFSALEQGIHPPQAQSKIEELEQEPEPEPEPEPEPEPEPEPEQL
- test: cell-based or functional assay
Number plus unit, in that order.

Exercise: Given sdAb No. 25 (VHH, Fc of the tested form not described; also called sdAb 25; sdAb #25; not shown: Fc part implied by anti-human Fc capture and anti-human IgG Fc detection) VHH: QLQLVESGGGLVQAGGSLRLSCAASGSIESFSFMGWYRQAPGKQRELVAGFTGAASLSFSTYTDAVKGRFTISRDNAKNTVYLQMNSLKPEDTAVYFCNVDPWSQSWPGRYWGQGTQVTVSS , state its recorded IL-2, % of BMS, at 0.411522634 ug/mL.
Key: 9.2%

Exercise: What does the record list as IL-2, % of BMS, at 0.411522634 ug/mL for combination of sdAbs 25 and 2015 (other) VHH 1: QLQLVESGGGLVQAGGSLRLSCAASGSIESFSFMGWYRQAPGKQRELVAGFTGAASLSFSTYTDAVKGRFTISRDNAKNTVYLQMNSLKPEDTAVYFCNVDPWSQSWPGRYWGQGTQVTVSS VHH 2: QLQLVESGGGLAQTGGSLRLSCAAAGFTFDDTATGWFRQAPGKNREGVACISSSDGRIHYIDSAKGRFTISKDNAKKTVYLQMDSLKPEDTAVYYCAAARKGSTDCQGAIWGSWGQGTQVIVSS ?
Key: 3.96%

Exercise: Fill in: IL-2, % of BMS, at 0.411522634 ug/mL of combination of sdAbs 25 and 27 (other) VHH 1: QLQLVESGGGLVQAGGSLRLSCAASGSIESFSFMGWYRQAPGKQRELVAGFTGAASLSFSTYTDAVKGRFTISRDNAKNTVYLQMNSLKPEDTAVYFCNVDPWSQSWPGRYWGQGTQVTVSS VHH 2: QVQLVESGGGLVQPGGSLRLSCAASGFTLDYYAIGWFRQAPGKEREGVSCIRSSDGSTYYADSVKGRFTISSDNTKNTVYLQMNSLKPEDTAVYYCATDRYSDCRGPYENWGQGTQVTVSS is ___
Key: 39%
